Source of measurements: the supplement of paper PMC10307832

This listing pairs compounds with measured relative viability.
- Tested on: LCLC-103H
- experimental details: relative viability (nuclei count vs DMSO), 5 days (fraction); higher = more cells survive
- condition info: first compound 0.4 µM
Lab note: record just the number, no unit beside it.

Previously resolved entries follow.
| compound | relative viability |
| --- | --- |
| Cc1sc2c(c1C)C(c1ccc(Cl)cc1)=N[C@@H](CC(=O)OC(C)(C)C)c1nnc(C)n1-2 [JQ1] + NC(=O)Nc1cc(-c2cccc(F)c2)sc1C(=O)N[C@H]1CCCNC1 [AZD7762] (partner 0.2 µM) | 0.701 |
| Cc1sc2c(c1C)C(c1ccc(Cl)cc1)=N[C@@H](CC(=O)OC(C)(C)C)c1nnc(C)n1-2 [JQ1] + Nc1nc2[nH]cc(CCc3ccc(C(=O)N[C@@H](CCC(=O)O)C(=O)O)cc3)c2c(=O)[nH]1 [Pemetrexed] (partner 0.2 µM) | 0.393 |
| Cc1sc2c(c1C)C(c1ccc(Cl)cc1)=N[C@@H](CC(=O)OC(C)(C)C)c1nnc(C)n1-2 [JQ1] + CC(C)C[C@H](NC(=O)[C@H](Cc1ccccc1)NC(=O)c1cnccn1)B(O)O [Bortezomib] (partner 0.002 µM) | 1.06 |
| Cc1sc2c(c1C)C(c1ccc(Cl)cc1)=N[C@@H](CC(=O)OC(C)(C)C)c1nnc(C)n1-2 [JQ1] + Cc1nc(Nc2ncc(C(=O)Nc3c(C)cccc3Cl)s2)cc(N2CCN(CCO)CC2)n1 [Dasatinib] (partner 0.075 µM) | 0.464 |
| Cc1sc2c(c1C)C(c1ccc(Cl)cc1)=N[C@@H](CC(=O)OC(C)(C)C)c1nnc(C)n1-2 [JQ1] + CCNC(=O)c1noc(-c2cc(C(C)C)c(O)cc2O)c1-c1ccc(CN2CCOCC2)cc1 [Luminespib] (partner 0.01 µM) | 0.533 |

relative viability reading for Cc1sc2c(c1C)C(c1ccc(Cl)cc1)=N[C@@H](CC(=O)OC(C)(C)C)c1nnc(C)n1-2 [JQ1] + O=C(c1cc(Cc2n[nH]c(=O)c3ccccc23)ccc1F)N1CCN(C(=O)C2CC2)CC1 [Olaparib] (partner 8 µM) : 0.605

Per the records, this compound ( Cc1sc2c(c1C)C(c1ccc(Cl)cc1)=N[C@@H](CC(=O)OC(C)(C)C)c1nnc(C)n1-2 [JQ1] + N=C(N)NC(=N)NCCc1ccccc1 [Phenformin] (partner 250 µM) ) has relative viability equal to 0.371

###

Catalogue of relative viability values
- Test system: HARA
- experimental details: relative viability (nuclei count vs DMSO), 5 days (fraction); higher = more cells survive
- condition info: first compound 0.0002 µM
Write no unit; give the number alone.

| molecule | measured on | relative viability |
| --- | --- | --- |
| CC(=O)O[C@@]12CO[C@@H]1C[C@H](O)[C@@]1(C)C(=O)[C@H](O)C3=C(C)[C@@H](OC(=O)[C@H](O)[C@@H](NC(=O)OC(C)(C)C)c4ccccc4)C[C@@](O)([C@@H](OC(=O)c4ccccc4)[C@H]21)C3(C)C [Docetaxel] + Nc1ncn([C@H]2C[C@H](O)[C@@H](CO)O2)c(=O)n1 [Decitabine] (partner 2 µM) | HARA | 0.459 |

Value of relative viability reported for the molecule CC(=O)O[C@@]12CO[C@@H]1C[C@H](O)[C@@]1(C)C(=O)[C@H](O)C3=C(C)[C@@H](OC(=O)[C@H](O)[C@@H](NC(=O)OC(C)(C)C)c4ccccc4)C[C@@](O)([C@@H](OC(=O)c4ccccc4)[C@H]21)C3(C)C [Docetaxel] + CS(=O)(=O)CCNCc1ccc(-c2ccc3ncnc(Nc4ccc(OCc5cccc(F)c5)c(Cl)c4)c3c2)o1 [Lapatinib] (partner 2 µM) is 0.517

###

- Tested on: EPLC-272H
- experimental details: relative viability (nuclei count vs DMSO), 5 days (fraction); higher = more cells survive
- condition info: first compound 0.05 µM
recorded endpoint: relative viability
Form rule: numeric answer, no unit written next to it.

Guide cases for relative viability, answers given:
| molecule | reading |
| --- | --- |
| Nc1ccn([C@@H]2O[C@H](CO)[C@@H](O)[C@@H]2O)c(=O)n1 [Cytarabine] + NC(=O)Nc1cc(-c2cccc(F)c2)sc1C(=O)N[C@H]1CCCNC1 [AZD7762] (partner 0.2 µM) | 0.117 |
| Nc1ccn([C@@H]2O[C@H](CO)[C@@H](O)[C@@H]2O)c(=O)n1 [Cytarabine] + CS(=O)(=O)CCNCc1ccc(-c2ccc3ncnc(Nc4ccc(OCc5cccc(F)c5)c(Cl)c4)c3c2)o1 [Lapatinib] (partner 2 µM) | 0.592 |
| COc1cc2nccc(Oc3ccc(NC(=O)Nc4cc(C)on4)c(Cl)c3)c2cc1OC [Tivozanib] + Cc1cc(Nc2cc(N3CCN(C)CC3)nc(Sc3ccc(NC(=O)C4CC4)cc3)n2)n[nH]1 [Tozasertib] (partner 0.1 µM) | 0.387 |
| COc1cc2nccc(Oc3ccc(NC(=O)Nc4cc(C)on4)c(Cl)c3)c2cc1OC [Tivozanib] + NC(=O)Nc1cc(-c2cccc(F)c2)sc1C(=O)N[C@H]1CCCNC1 [AZD7762] (partner 0.2 µM) | 0.186 |
| COc1cc2nccc(Oc3ccc(NC(=O)Nc4cc(C)on4)c(Cl)c3)c2cc1OC [Tivozanib] + CC(=O)c1c(C)c2cnc(Nc3ccc(N4CCNCC4)cn3)nc2n(C2CCCC2)c1=O [Palbociclib] (partner 0.5 µM) | 0.35 |

Observed relative viability on EPLC-272H, entry COc1cc2nccc(Oc3ccc(NC(=O)Nc4cc(C)on4)c(Cl)c3)c2cc1OC [Tivozanib] + CC(=O)Nc1cccc(-n2c(=O)n(C3CC3)c(=O)c3c(Nc4ccc(I)cc4F)n(C)c(=O)c(C)c32)c1 [Trametinib] (partner 0.02 µM) , equals 0.27

Readout relative viability for COc1cc2nccc(Oc3ccc(NC(=O)Nc4cc(C)on4)c(Cl)c3)c2cc1OC [Tivozanib] + C[C@]1(O)C[C@@H](c2nc(-c3ccc4ccc(-c5ccccc5)nc4c3)c3c(N)nccn32)C1 [Linsitinib] (partner 1 µM) , test system EPLC-272H, was 1.17

Summary: COc1cc2nccc(Oc3ccc(NC(=O)Nc4cc(C)on4)c(Cl)c3)c2cc1OC [Tivozanib] + Nc1nc2[nH]cc(CCc3ccc(C(=O)N[C@@H](CCC(=O)O)C(=O)O)cc3)c2c(=O)[nH]1 [Pemetrexed] (partner 0.2 µM) , EPLC-272H, relative viability = 0.335

So the reported relative viability for COc1cc2nccc(Oc3ccc(NC(=O)Nc4cc(C)on4)c(Cl)c3)c2cc1OC [Tivozanib] + N=C(N)NC(=N)NCCc1ccccc1 [Phenformin] (partner 250 µM) , on EPLC-272H, turned out to be 0.359

Fill in: EPLC-272H relative viability for Nc1ccn([C@@H]2O[C@H](CO)[C@@H](O)[C@@H]2O)c(=O)n1 [Cytarabine] + CCNC(=O)c1noc(-c2cc(C(C)C)c(O)cc2O)c1-c1ccc(CN2CCOCC2)cc1 [Luminespib] (partner 0.01 µM) = 0.194

###

- System: NCI-H727
- experimental details: relative viability (nuclei count vs DMSO), 5 days (fraction); higher = more cells survive
- condition info: first compound 5 µM
recorded endpoint: relative viability

// field: relative viability; key: O=C(O)CCCCC(CCSCc1ccccc1)SCc1ccccc1 (centres undefined) [CPI-613] + CCNC(=O)c1noc(-c2cc(C(C)C)c(O)cc2O)c1-c1ccc(CN2CCOCC2)cc1 [Luminespib] (partner 0.01 µM) ; value = 0.274

###

Below is a list of entries, each paired with its recorded relative viability value.
- System: NCI-H1944
- experimental details: relative viability (nuclei count vs DMSO), 5 days (fraction); higher = more cells survive
- condition info: first compound 0.1581 µM
The response must contain the number and no unit.

Below, each entry is followed by its recorded relative viability result.
| molecule | measured on | relative viability |
| --- | --- | --- |
| Nc1ccn([C@@H]2O[C@H](CO)[C@@H](O)[C@@H]2O)c(=O)n1 [Cytarabine] + O=C(CCCCCCC(=O)Nc1ccccc1)NO [Vorinostat] (partner 1 µM) | NCI-H1944 | 0.203 |
| Nc1ccn([C@@H]2O[C@H](CO)[C@@H](O)[C@@H]2O)c(=O)n1 [Cytarabine] + COc1cc2c(Oc3ccc(NC(=O)C4(C(=O)Nc5ccc(F)cc5)CC4)cc3F)ccnc2cc1OCCCN1CCOCC1 [Foretinib] (partner 0.25 µM) | NCI-H1944 | 0.223 |
| Nc1ccn([C@@H]2O[C@H](CO)[C@@H](O)[C@@H]2O)c(=O)n1 [Cytarabine] + Cc1nc(Nc2ncc(C(=O)Nc3c(C)cccc3Cl)s2)cc(N2CCN(CCO)CC2)n1 [Dasatinib] (partner 0.075 µM) | NCI-H1944 | 0.0903 |

Kindly review the next molecule as well.
Looking up COc1cc2nccc(Oc3ccc(NC(=O)Nc4cc(C)on4)c(Cl)c3)c2cc1OC [Tivozanib] + O=C(CCCCCCC(=O)Nc1ccccc1)NO [Vorinostat] (partner 1 µM) , I found its relative viability recorded as 0.5
